Origin of measurements: PubChem BioAssay (EPA / NIEHS)

Assay: ATG_TGFb_CIS: Attagene CIS-FACTORIAL HepG2 Assay for human Transforming Growth Factor (TGF) (AID 2282967)
Settings: HepG2 Attagene CIS TGFb reporter, mRNA transcription; actives raise or lower the signal
The source made the active and inactive calls. Rule for the calls: active = hit-call score of the fitted dose curve at least 0.9, where 1 is the maximum; inactive = score below 0.9.

[
  {
    "molecule": "CSc1nc(NC2CC2)nc(NC(C)(C)C)n1",
    "outcome": "inactive"
  },
  {
    "molecule": "CC(C)=CCC[C@](C)(O)[C@@H]1CC=C(C)CC1",
    "outcome": "inactive"
  },
  {
    "molecule": "O=c1cc(-c2ccccc2)oc2cc(O)cc(O)c12",
    "outcome": "inactive"
  }
]

---

Assay: TOX21_p53_BLA_p5_viability: Viability Assessment in the Tox21 HCT-116 p53 Agonism Beta-lactamase Assay, Phase 5 (AID 2283600)
Inconclusive results are not listed. The source made the active and inactive calls. Rule for the calls: active = hit-call score of the fitted dose curve at least 0.9, where 1 is the maximum; inconclusive = response in the unintended direction; inactive = score below 0.9.
Reply using exactly one outcome from active, inactive

[
  {
    "compound": "O=C1CCCCCCCCCCCCCCO1",
    "labelClass": "inactive"
  }
]

Hi team, can someone confirm the assay call for "NCCCCCCN" ?
inactive

Hi team, can someone confirm the assay call for "NC(N)=NC(=O)c1nc(Cl)c(N)nc1N" ?
inactive

Hi team, can someone confirm the assay call for "COC(=O)OC" ?
inactive

Hi team, can someone confirm the assay call for "Nc1cc([N+](=O)[O-])ccc1O" ?
inactive

Hi team, can someone confirm the assay call for "CCCCCC=CCC(=O)OC" ?
inactive

Hi team, can someone confirm the assay call for "ClCCCl" ?
inactive

Hi team, can someone confirm the assay call for "CC(=O)OCCOC(C)=O" ?
inactive

---

Target: Paired box protein Pax-6 (Homo sapiens) (UniProt P26367)
Sequence (P26367 whole entry, looked up): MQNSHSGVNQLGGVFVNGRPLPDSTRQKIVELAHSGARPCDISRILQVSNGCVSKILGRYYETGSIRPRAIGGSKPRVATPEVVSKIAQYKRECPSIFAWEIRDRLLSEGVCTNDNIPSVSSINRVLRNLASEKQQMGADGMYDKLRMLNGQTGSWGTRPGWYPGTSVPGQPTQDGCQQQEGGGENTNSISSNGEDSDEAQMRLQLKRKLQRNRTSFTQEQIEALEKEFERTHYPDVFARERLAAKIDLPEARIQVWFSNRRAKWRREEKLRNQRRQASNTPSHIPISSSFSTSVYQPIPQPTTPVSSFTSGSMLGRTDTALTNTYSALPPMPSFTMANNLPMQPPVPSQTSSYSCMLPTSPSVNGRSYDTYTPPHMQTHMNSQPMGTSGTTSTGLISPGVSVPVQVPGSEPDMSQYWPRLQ
Test: ATG_Pax6_CIS: Attagene CIS-FACTORIAL HepG2 Assay for human Paired Box 6 (PAX6) (AID 2282956)
Details: HepG2 CIS-FACTORIAL PAX6 reporter transcription, RNA readout; actives raise or lower the signal
Calls of active or inactive are those of the source. The calls were made as follows: active = hit-call score of the fitted dose curve at least 0.9, where 1 is the maximum; inactive = score below 0.9.
Reply using exactly one outcome from active, inactive

Previously resolved entries follow.
[
  {
    "molecule": "CC(=O)OCC=Cc1ccccc1",
    "assayedTarget": "Paired box protein Pax-6 (Homo sapiens) (UniProt P26367)",
    "labelClass": "inactive"
  },
  {
    "molecule": "CCCCCCCCC=O",
    "assayedTarget": "Paired box protein Pax-6 (Homo sapiens) (UniProt P26367)",
    "labelClass": "inactive"
  },
  {
    "molecule": "CC(CCO)CCCC(C)(C)O (stereo not given)",
    "assayedTarget": "Paired box protein Pax-6 (Homo sapiens) (UniProt P26367)",
    "labelClass": "inactive"
  },
  {
    "molecule": "CCN(CC)c1ccc(C(=C2C=CC(=[N+](CC)CC)C=C2)c2ccc(S(=O)(=O)O)cc2S(=O)(=O)[O-])cc1",
    "assayedTarget": "Paired box protein Pax-6 (Homo sapiens) (UniProt P26367)",
    "labelClass": "inactive"
  },
  {
    "molecule": "CC(C)=CCCC(C)CC=O (stereo not given)",
    "assayedTarget": "Paired box protein Pax-6 (Homo sapiens) (UniProt P26367)",
    "labelClass": "inactive"
  },
  {
    "molecule": "O=C1O[C@@H]2[C@@H](O)[C@H](O)O[C@@H]2[C@H]1O",
    "assayedTarget": "Paired box protein Pax-6 (Homo sapiens) (UniProt P26367)",
    "labelClass": "inactive"
  },
  {
    "molecule": "Nc1cc(N)cc(C(=O)O)c1",
    "assayedTarget": "Paired box protein Pax-6 (Homo sapiens) (UniProt P26367)",
    "labelClass": "inactive"
  },
  {
    "molecule": "Cc1ccc(C(=O)c2cc(O)c(O)c([N+](=O)[O-])c2)cc1",
    "assayedTarget": "Paired box protein Pax-6 (Homo sapiens) (UniProt P26367)",
    "labelClass": "inactive"
  },
  {
    "molecule": "CSc1nnc(C(C)(C)C)c(=O)[nH]1",
    "assayedTarget": "Paired box protein Pax-6 (Homo sapiens) (UniProt P26367)",
    "labelClass": "inactive"
  },
  {
    "molecule": "O=C(O)C[C@H](O)C[C@H](O)/C=C/c1c(C2CC2)nc2ccccc2c1-c1ccc(F)cc1",
    "assayedTarget": "Paired box protein Pax-6 (Homo sapiens) (UniProt P26367)",
    "labelClass": "inactive"
  }
]

// next entry
Hi team, can someone confirm the assay call for c1cc(C(c2ccc(OCC3CO3)cc2)c2ccc(OCC3CO3)cc2)ccc1OCC1CO1 (stereo not given) ?
active
